Each recorded value in this set is attributed to PubChem BioAssay AID2060605.

# System: 947758-054-R-J2-PDC spheroid growth, percent test/control
# TEST_NAME: Anticancer human tumor 947758-054-R-J2-PDC patient-derived colon adenocarcinoma cell line growth inhibition [CLK]; active = viability on the fitted dose curve at most 10% of control; inactive = the rest
# ASSAY_CONTEXT: second compound 3.16 µM; first compound 1 µM; spheroids with HUVEC and MSC
API: response.call in active, inactive

Reference set (4 entries):
| COMPOUND | CLASS_LABEL |
| --- | --- |
| C=CC(=O)N1CCN(c2nc(=O)n(-c3c(C)ccnc3C(C)C)c3nc(-c4c(O)cccc4F)c(F)cc23)C(C)C1 (stereo not given) + CN1CCN(c2cc(C(=O)Nc3cc4cc(-c5cnn(C)c5)ccc4cn3)ccn2)CC1 | active |
| COc1ccc([C@@H](O)c2cc(-c3ncnc4cc(N5CCOCC5)ccc34)c(F)cc2Cl)nn1 + CN1CCN(c2cc(C(=O)Nc3cc4cc(-c5cnn(C)c5)ccc4cn3)ccn2)CC1 | active |
| O=c1[nH]cc(F)c(=O)[nH]1 + CNC(=O)c1ccc(Nc2nc(OC3CCCC3)c3c(-c4ccc5nc(C)oc5c4)c[nH]c3n2)c(OC)c1 | inactive |
| CCN1CCN(Cc2ccc(Nc3ncc(F)c(-c4cc(F)c5nc(C)n(C(C)C)c5c4)n3)nc2)CC1 + CN1CCN(c2cc(C(=O)Nc3cc4cc(-c5cnn(C)c5)ccc4cn3)ccn2)CC1 | active |

Consider the additional compound presented here.
Problem: Look up the recorded call for COc1c(OCCCN2CCOCC2)ccc2c3n(c(=NC(=O)c4cnc(N)nc4)nc12)CCN3 + CNC(=O)c1ccc(Nc2nc(OC3CCCC3)c3c(-c4ccc5nc(C)oc5c4)c[nH]c3n2)c(OC)c1 in this test.
Solution: active

----------
# Tested on: 947758-054-R-J2-PDC spheroid growth, percent test/control
# TEST_NAME: Anticancer human tumor 947758-054-R-J2-PDC cell line growth inhibition [CLK]; active means viability on the fitted dose curve at most 10% of control; inactive means the rest;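 also: spheroids exposed to compounds for one week before readout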
# ASSAY_CONTEXT: second compound 1 µM; first compound 0.01 µM; spheroids with HUVEC and MSC
API: response.call in YES = active, NO = inactive

Reference set (4 entries):
| MOLECULE | TARGET_UNDER_TEST | CLASS_LABEL |
| --- | --- | --- |
| CCc1c2c(nc3ccc(O)cc13)-c1cc3c(c(=O)n1C2)COC(=O)[C@]3(O)CC + CNC(=O)c1ccc(Nc2nc(OC3CCCC3)c3c(-c4ccc5nc(C)oc5c4)c[nH]c3n2)c(OC)c1 | 947758-054-R-J2-PDC spheroid growth, percent test/control | NO |
| CCN1CCN(Cc2ccc(Nc3ncc(F)c(-c4cc(F)c5nc(C)n(C(C)C)c5c4)n3)nc2)CC1 + CNC(=O)c1ccc(Nc2nc(OC3CCCC3)c3c(-c4ccc5nc(C)oc5c4)c[nH]c3n2)c(OC)c1 | 947758-054-R-J2-PDC spheroid growth, percent test/control | NO |
| Cn1ncnc1[C@H]1c2n[nH]c(=O)c3cc(F)cc(c23)N[C@@H]1c1ccc(F)cc1 + CN1CCN(c2cc(C(=O)Nc3cc4cc(-c5cnn(C)c5)ccc4cn3)ccn2)CC1 | 947758-054-R-J2-PDC spheroid growth, percent test/control | YES |
| CCc1c2c(nc3ccc(O)cc13)-c1cc3c(c(=O)n1C2)COC(=O)[C@]3(O)CC + CN1CCN(c2cc(C(=O)Nc3cc4cc(-c5cnn(C)c5)ccc4cn3)ccn2)CC1 | 947758-054-R-J2-PDC spheroid growth, percent test/control | YES |

Consider the additional molecule presented here.
Problem: Look up the recorded call for COc1c(OCCCN2CCOCC2)ccc2c3n(c(=NC(=O)c4cnc(N)nc4)nc12)CCN3 + CN1CCN(c2cc(C(=O)Nc3cc4cc(-c5cnn(C)c5)ccc4cn3)ccn2)CC1 in this test.
Solution: YES
